Data origin, for the record: patent EP4806898A1

- Target Or System: recombinant USP1 protein (Homo sapiens, UniProt O94782, DEL125-138/DEL229-408/DEL608-737)
- Sequence (O94782 with tags, fused parts or gaps DEL125-138/DEL229-408/DEL608-737): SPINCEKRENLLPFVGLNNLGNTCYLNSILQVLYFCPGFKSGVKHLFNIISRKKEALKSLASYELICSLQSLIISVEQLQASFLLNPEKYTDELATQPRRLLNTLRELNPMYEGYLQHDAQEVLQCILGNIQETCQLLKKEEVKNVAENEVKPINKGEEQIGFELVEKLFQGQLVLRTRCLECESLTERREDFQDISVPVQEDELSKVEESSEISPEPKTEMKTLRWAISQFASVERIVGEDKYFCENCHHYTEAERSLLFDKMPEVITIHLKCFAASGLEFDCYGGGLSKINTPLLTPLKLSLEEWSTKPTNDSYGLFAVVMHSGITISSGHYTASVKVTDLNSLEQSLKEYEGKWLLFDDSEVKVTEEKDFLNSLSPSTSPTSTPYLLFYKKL
- Protocol Summary: Binding affinity to recombinant USP1 protein by differential scanning fluorimetry
- Protocol Conditions: compound 100 µM; 0.03 mg/mL USP1 (Δ1-66, Δ125-138, Δ229-408, Δ608-737); Tm with compound minus Tm with DMSO; read-out: ΔTm (°C)
Readout Name: ΔTm at 100 µM

INSERT INTO assay_data (compound, readout_name, result) VALUES
  ('COc1ncnc(C2CC2)c1-c1ncc2cc(C(=O)N3CC(CS(C)(=O)=O)C3)n(Cc3ccc(-c4nc(C(F)(F)F)cn4C(C)C)cc3)c2n1 [Example 75]', 'ΔTm at 100 µM', '> 5 °C');

Provide ΔTm at 100 µM for all items below, preserving their order.
1. CNC(=O)c1cc2cnc(-c3c(OC)ncnc3C3CC3)nc2n1Cc1ccc(-n2ccnn2)cc1 [Example 44]
2. COc1ncnc(C2CC2)c1-c1ncc2cc(C(=O)NC3CCN(C(C)C)CC3)n(Cc3ccc(-c4nc(C(F)(F)F)cn4C(C)C)cc3)c2n1 [Example 137]
3. COc1ncnc(C2CC2)c1-c1ncc2cc(C(=O)NC3CCN(S(C)(=O)=O)CC3)n(Cc3ccc(-c4nc(C(F)(F)F)cn4C(C)C)cc3)c2n1 [Example 74]
4. CN[C@H]1CCN(C(=O)c2cc3cnc(-c4c(OC)ncnc4C4CC4)nc3n2Cc2ccc(-c3nc(C(F)(F)F)cn3C(C)C)cc2)C1 [Example 97]
5. COc1ncnc(C2CC2)c1-c1ncc2cc(C(=O)N(C)C)n(Cc3ccc(-c4nc(C(F)(F)F)cn4C(C)C)cc3)c2n1 [Example 5]

["< 5 °C", "> 5 °C", "> 5 °C", "> 5 °C", "> 5 °C"]
